Where do the numbers come from? From ChEMBL document CHEMBL3885881.

Species on record: Rattus norvegicus
ASSAY_SUMMARY: DrugMatrix - Regimen: Daily Repeat
Format: toxicity, organism-based, Sprague-Dawley
Parameters: regimen Daily Repeat, gender Male, age 6-8 weeks
CONDITION_CONTEXT: in vivo, po, 0 mg/kg, 120 h, tissue Blood, route oral GAVAGE, dose level Control, time 5 day, vehicle 100 % WATER
PROPERTY: MEAN CORPUSCULAR HEMOGLOBIN

COMPOUND: CC(C)C[C@H](NC(=O)[C@@H](O)[C@H](N)Cc1ccccc1)C(=O)O [UBENIMEX]
MEASURED_VALUE: 24.42 pg

COMPOUND: C[N+](C)(C)CCO.[Cl-] [CHOLINE CHLORIDE]
MEASURED_VALUE: 25.65 pg

COMPOUND: CC(C)NCC(O)COc1cccc2ccccc12 (stereo unspecified) [PROPRANOLOL]
MEASURED_VALUE: 23.8 pg

COMPOUND: CC(C)(C)c1ccc(C(=O)CCCN2CCC(OC(c3ccccc3)c3ccccc3)CC2)cc1 [EBASTINE]
MEASURED_VALUE: 25.25 pg

COMPOUND: ClC(Cl)Cl [CHLOROFORM]
MEASURED_VALUE: 24.3 pg

COMPOUND: Cc1ncc([N+](=O)[O-])n1CCO [METRONIDAZOLE]
MEASURED_VALUE: 24.3 pg

====

Each entry below carries its recorded PHOSPHORUS.
Species: Rattus norvegicus
ASSAY_SUMMARY: DrugMatrix - Regimen: Daily Repeat
Type: toxicity, organism-based, Sprague-Dawley
Design: regimen Daily Repeat, gender Male, age 6-8 weeks
CONDITION_CONTEXT: in vivo, po, 0 mg/kg, 120 h, tissue Plasma, route oral GAVAGE, dose level Control, time 5 day, […]
PROPERTY: PHOSPHORUS (mg/dL)

COMPOUND: COc1ccc2[nH]c([S+]([O-])Cc3ncc(C)c(OC)c3C)nc2c1 (stereo not given)
PROPERTY: PHOSPHORUS
MEASURED_VALUE: 11.28
//
COMPOUND: CC(=O)Nc1cccc(O)c1
PROPERTY: PHOSPHORUS
MEASURED_VALUE: 11.08
//
COMPOUND: CC(=O)Nc1ccc(O)cc1
PROPERTY: PHOSPHORUS
MEASURED_VALUE: 8.72
//
COMPOUND: CCOC(=O)C1=C(C)NC(C)=C(C(=O)OC)C1c1cccc([N+](=O)[O-])c1 (stereo not given)
PROPERTY: PHOSPHORUS
MEASURED_VALUE: 10.32
//
COMPOUND: Cc1cccc(Nc2ccncc2S(=O)(=O)NC(=O)NC(C)C)c1 [TORSEMIDE]
PROPERTY: PHOSPHORUS
MEASURED_VALUE: 10
//
COMPOUND: COCCOC(=O)C1=C(C)NC(C)=C(C(=O)OC(C)C)C1c1cccc([N+](=O)[O-])c1 (stereo not given)
PROPERTY: PHOSPHORUS
MEASURED_VALUE: 10.32
//
COMPOUND: CC/C(=C(/CC)c1ccc(O)cc1)c1ccc(O)cc1
PROPERTY: PHOSPHORUS
MEASURED_VALUE: 9.98
//
COMPOUND: O=NN(CCCl)C(=O)NCCCl
PROPERTY: PHOSPHORUS
MEASURED_VALUE: 8.72
//
COMPOUND: CCCCCCCCc1ccc(O)cc1
PROPERTY: PHOSPHORUS
MEASURED_VALUE: 10.88
//
COMPOUND: CC(C)(Oc1ccc(C2CCCc3ccccc32)cc1)C(=O)O (stereo not given)
PROPERTY: PHOSPHORUS
MEASURED_VALUE: 11.63
